- System: HCV replicon (5-2 Luc replicon-comprising cells)
- assay-summary: HCV replicon assay (luciferase reporter)
- Assay type: cell-based, Hepatitis C virus
- test-parameters: Hepatitis C virus, 24 h, read-out: Replicon (IC50, 50% reduction in luciferase emission)
parameter-measured: IC50

molecule="O=C(Nc1ccnc(-c2cc(-c3c(Cl)cccc3Cl)no2)c1)C(Cl)Cl [Compound 9]" subject_of_test="HCV replicon (5-2 Luc replicon-comprising cells)" parameter_measured=IC50 experimental_result="< 10 µM"

====

- assay-summary: cytotoxicity assay (Cell Titer Glo)
- Format: cell-based
- test-parameters: human; 48 hr with compound, ATP-dependent Cell Titer Glo; read-out: IC50 (cytotoxicity, number of viable cells)
parameter-measured: IC50 at 48 h

compound="Cc1cccc(C)c1-c1cc(-c2cncc(NC(=O)C(Cl)Cl)c2)on1 [Compound 21]" experimental_result="≥ 10 µM"
compound="O=C(Nc1cncc(-c2cc(-c3c(F)cccc3F)no2)c1)C(Cl)Cl [Compound 27]" experimental_result="≥ 10 µM"
compound="O=C(Nc1cncc(-c2cc(-c3c(F)cccc3C(F)(F)F)no2)c1)C(Cl)Cl [Compound 37]" experimental_result="≥ 10 µM"
compound="O=C(Nc1cncc(-c2cc(-c3c(Cl)cccc3Cl)no2)c1)C(Cl)Cl [Compound 7]" experimental_result="≥ 10 µM"
compound="COc1cccc(F)c1-c1cc(-c2cc(NC(=O)C(Cl)Cl)ccn2)on1 [Compound 39]" experimental_result="≥ 10 µM"
compound="COc1cccc(F)c1-c1cc(-c2cncc(NC(=O)C(Cl)Cl)c2)on1 [Compound 17]" experimental_result="≥ 10 µM"
compound="Cc1cccnc1-c1cc(-c2cccc(NC(=O)C(Cl)Cl)c2)on1 [Compound 33]" experimental_result="≥ 10 µM"
compound="O=C(Nc1cncc(-c2cc(-c3c(F)cccc3Cl)no2)c1)C(Cl)Cl [Compound 13]" experimental_result="3 µM"
compound="CN(C(=O)C(Cl)Cl)c1ccnc(-c2cc(-c3c(Cl)cccc3Cl)no2)c1 [Compound 51]" experimental_result="≥ 10 µM"
compound="Cc1cccc(C)c1-c1cc(-c2cc(NC(=O)C(Cl)Cl)ccn2)on1 [Compound 19]" experimental_result="> 5 µM"
compound="COc1cccc(C(F)(F)F)c1-c1cc(-c2cc(NC(=O)C(Cl)Cl)ccn2)on1 [Compound 49]" experimental_result="≥ 10 µM"
compound="O=C(Nc1ccnc(-c2cc(-c3c(F)cccc3C(F)(F)F)no2)c1)C(Cl)Cl [Compound 3]" experimental_result="≥ 10 µM"
compound="COc1cccc(C(F)(F)F)c1-c1cc(-c2cncc(NC(=O)C(Cl)Cl)c2)on1 [Compound 57]" experimental_result="> 5 µM"
compound="O=C(Nc1ccnc(-c2cc(-c3c(N4CCOCC4)cccc3C(F)(F)F)no2)c1)C(Cl)Cl [Compound 31]" experimental_result="≥ 10 µM"
compound="O=C(Nc1cccc(-c2cc(-c3c(Cl)cccc3Cl)no2)n1)C(Cl)Cl [Compound 35]" experimental_result="≥ 10 µM"
compound="O=C(Nc1ccnc(-c2cc(-c3c(Cl)cccc3Cl)no2)c1)C(Cl)Cl [Compound 9]" experimental_result="≥ 10 µM"
compound="O=C(Nc1cncc(-c2cc(-c3cccc(Cl)c3Cl)no2)c1)C(Cl)Cl [Compound 29]" experimental_result="≥ 10 µM"
compound="O=C(Nc1ccnc(-c2cc(-c3c(F)cccc3Cl)no2)c1)C(Cl)Cl [Compound 1]" experimental_result="≥ 10 µM"

Data origin, for the record: patent US7332602B2
